From: ChEMBL document CHEMBL3988442

# TARGET OR TEST SYSTEM: Aspartate--tRNA(Asp/Asn) ligase (Mycobacterium tuberculosis (strain ATCC 25618 / H37Rv))
# ASSAY INFO: Assay for Asp RNA synthetase-1 from Mycobacterium tuberculosis
# Assay type: functional
# Set-up: scale not given: in the data most compounds retested in dose-response had high values
# REPORTED CONDITIONS: 30 µM
Exercise: state measured Percent Effect for each of the compounds provided.
Kindly answer with a numeric value in %, unit omitted.

State, in one line, measured Percent Effect of Cn1c(C2CC2)nc2c1CCN(CC(=O)Nc1nncs1)C2
7.07

State, in one line, measured Percent Effect of CC(C)Cc1noc(CN2CCN(c3nccs3)CC2)n1
-4.73

State, in one line, measured Percent Effect of CCOC(=O)[C@]12CCCN(Cc3nccs3)C[C@H]1CN(CCN(C)C)C2
6.19

State, in one line, measured Percent Effect of CCn1ncc2c1CCCC2NCC1=Cc2ccccc2OC1 (centres undefined)
4.82

State, in one line, measured Percent Effect of CC(=O)c1cccc(NC(=O)Cn2cc(I)cn2)c1
6.41

State, in one line, measured Percent Effect of CCc1ccc(OCC(O)CN2CCN(S(C)(=O)=O)CC2)cc1 (centres undefined)
-0.577

State, in one line, measured Percent Effect of CCOCC(=O)N1CCC(Oc2ccc(Cl)cn2)CC1
-2.08

State, in one line, measured Percent Effect of Cc1ccc(C(=O)N2CCCS2(=O)=O)cc1Cl
-5.6

State, in one line, measured Percent Effect of Cc1ncsc1-c1nnc(C2CCN(Cc3ccc(F)cc3)CC2)o1
4.24

State, in one line, measured Percent Effect of CCc1nnc2n1CCN(C(=O)c1ccc3nc(C)c(C)nc3c1)C2
-2.42

State, in one line, measured Percent Effect of CS(=O)(=O)N1CCC2(CC1)CC(CC(=O)N1CCCC1)c1ccccc12 (centres undefined)
5.87

State, in one line, measured Percent Effect of NS(=O)(=O)CCNC(=O)c1ccc(-c2ccc(F)cc2)cc1F
16.3

State, in one line, measured Percent Effect of CC(N(C)Cc1nc2c(cnn2C)c(=O)[nH]1)C(C)(C)C (centres undefined)
5.45

State, in one line, measured Percent Effect of CCn1ncnc1C1CC(=O)NCc2nc3ccccn3c21 (centres undefined)
-2.72

State, in one line, measured Percent Effect of Cc1cc(C(=O)N2CCc3nnc(N)cc3C2)c(C)n1C1CC1
7.93

State, in one line, measured Percent Effect of COc1cc(C2CC(=O)Oc3cc(C)[nH]c(=O)c32)ccc1OC(F)F (centres undefined)
-4.59

State, in one line, measured Percent Effect of O=C(CSC1=NS(=O)(=O)c2cc(F)ccc2N1)c1ccc(Cl)cc1
5.12

State, in one line, measured Percent Effect of O=C(NCc1cc[nH]n1)NCC(O)c1ccc(F)cc1F (centres undefined)
4.01

State, in one line, measured Percent Effect of Cc1cc(-c2nnc(SCC(=O)O)n2C(C)c2ccccc2)nn1C (centres undefined)
2.15

State, in one line, measured Percent Effect of COCCO[C@@H]1C[C@H]2CN(C(=O)c3cnccn3)CCN2C1
6.43

State, in one line, measured Percent Effect of CCc1nc(CN2CCCC(NCc3ccc(C(N)=O)cc3)C2)no1 (centres undefined)
-2.68

State, in one line, measured Percent Effect of COCc1nc(C(=O)N2CCCCC2Cn2cc(C)cn2)cs1 (centres undefined)
0.0865

State, in one line, measured Percent Effect of COc1ccc(CCC(=O)NC2CCC(O)CC2)cc1OC (centres undefined)
-2.67

State, in one line, measured Percent Effect of O=C(CCn1ccc2cc(Br)ccc21)NCc1ccc(C(=O)O)cc1
8.3
